Property: protein stability index; scope: individual variants
B1: BEX1 (parent)
chain: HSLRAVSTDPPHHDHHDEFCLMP

# Variants of: B1
# experimental_details: protein stability index of a GFP-peptide fusion (GPS, HEK-293T) (PSI 1-6); higher = more stable;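 note: lentivirally expressed fusions sorted by FACS into six bins by GFP to DsRed ratio, PSI derived from sequencing read proportions per bin multiplied by bin number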
# condition_info: c terminus: native
Lab note: record the figure alone, no unit after it.

Guide cases for protein stability index, answers given:
construct_sequence | protein stability index
HSLRAVSEDPPHHDHHDEFCLMP [T8E] | 2.89
HSLRAVSTDPPHHDHHDEFCLMW [P23W] | 2.19
HSLRAVSTDPPFHDHHDEFCLMP [H12F] | 2.49

Request: What does the data say about its protein stability index? Entry: HSLRAVSTYPPHHDHHDEFCLMP [D9Y]
Result: 2.37

Request: What does the data say about its protein stability index? Entry: HSLAAVSTDPPHHDHHDEFCLMP [R4A]
Result: 1.82

Request: What does the data say about its protein stability index? Entry: HSLRAVSTDPPHEDHHDEFCLMP [H13E]
Result: 2.37

Request: What does the data say about its protein stability index? Entry: HSLRAVSTQPPHHDHHDEFCLMP [D9Q]
Result: 3.63

Request: What does the data say about its protein stability index? Entry: HALRAVSTDPPHHDHHDEFCLMP [S2A]
Result: 3.34

Request: What does the data say about its protein stability index? Entry: HSLRAVSTDPPHHDHHGEFCLMP [D17G]
Result: 1.88

Request: What does the data say about its protein stability index? Entry: HSLRAVSTDPWHHDHHDEFCLMP [P11W]
Result: 2.29

Request: What does the data say about its protein stability index? Entry: HSLRAVSTDPEHHDHHDEFCLMP [P11E]
Result: 2.81

Request: What does the data say about its protein stability index? Entry: PSLRAVSTDPPHHDHHDEFCLMP [H1P]
Result: 2.21

Request: What does the data say about its protein stability index? Entry: HSRRAVSTDPPHHDHHDEFCLMP [L3R]
Result: 2.21

Request: What does the data say about its protein stability index? Entry: HSLRAVSTDPPHHDHHDEFHLMP [C20H]
Result: 2.41

Request: What does the data say about its protein stability index? Entry: HSLRAVSQDPPHHDHHDEFCLMP [T8Q]
Result: 2.69

Request: What does the data say about its protein stability index? Entry: HSLRAVSTDPPHHDHHDENCLMP [F19N]
Result: 2.42

Request: What does the data say about its protein stability index? Entry: HRLRAVSTDPPHHDHHDEFCLMP [S2R]
Result: 1.58

Request: What does the data say about its protein stability index? Entry: HSLRARSTDPPHHDHHDEFCLMP [V6R]
Result: 2.37

Request: What does the data say about its protein stability index? Entry: HVLRAVSTDPPHHDHHDEFCLMP [S2V]
Result: 2.88

Request: What does the data say about its protein stability index? Entry: WSLRAVSTDPPHHDHHDEFCLMP [H1W]
Result: 1.93

Request: What does the data say about its protein stability index? Entry: HSLRAVSTDPPHHDHHDEFCTMP [L21T]
Result: 2.47

Request: What does the data say about its protein stability index? Entry: HSLRAVSTDPPHHDHVDEFCLMP [H16V]
Result: 2

Reference source for all entries: the supplement of paper PMC10567573
